Every entry's value here was drawn from patent US8003695B2.

# System: human whole blood
# ASSAY TEXT: LPS-Stimulation of Human Whole Blood, TNF-α release
# Format: cell-based
# CONDITIONS USED: LPS 100 ng/ml, 6 hrs, read-out: Inhibitor activity versus human whole blood TNFα release
PARAMETER MEASURED: IC50

> print(dat)
                                   compound        test.system  parameter.measured     result
1  NC(=O)Nc1sc(-c2ccc(CN[C@H](C(=O)OC3CCCC3)c3ccccc3)cc2)cc1C(N)=O [Example 1]  human whole blood                IC50  1 to 5 µM

I have 4 compounds here; please give me IC50 for each one.
1. CC(C)C[C@H](NC/C=C/c1ccc(-c2cc(C(N)=O)c(NC(N)=O)s2)c(C(F)(F)F)c1)C(=O)OC1CCCC1 [Example 39]
2. NC(=O)Nc1sc(-c2cccc(CN[C@@H](CO)C(=O)OC3CCCC3)c2)cc1C(N)=O [Example 12]
3. C[C@@H](O)[C@H](NCc1cccc(-c2cc(C(N)=O)c(NC(N)=O)s2)c1)C(=O)OC1CCCC1 [Example 13]
4. NC(=O)Nc1sc(-c2cccc(CN[C@H](C(=O)OC3CCCC3)c3ccccc3)c2)cc1C(N)=O [Example 9]

OUT:
1 to 5 µM
< 1 µM
< 1 µM
1 to 5 µM

Dear colleague, could you send me IC50 for each of the items below? Thanks.
1. NC(=O)Nc1sc(-c2ccc(/C=C/CN[C@H](C(=O)OC3CCCC3)C3CCCCC3)cc2)cc1C(N)=O [Example 44]
2. Cc1cc(/C=C/CN[C@@H](CC(C)C)C(=O)OC2CCCC2)ccc1-c1cc(C(N)=O)c(NC(N)=O)s1 [Example 33]
3. CC(C)C[C@H](NC/C=C/c1cccc(-c2cc(C(N)=O)c(NC(N)=O)s2)c1)C(=O)OC1CCCC1 [Example 49]
4. CC(C)C[C@H](NC/C=C/c1c(F)cc(-c2cc(C(N)=O)c(NC(N)=O)s2)cc1F)C(=O)OC1CCCC1 [Example 38]
5. NC(=O)Nc1sc(-c2ccc(CN[C@@H](C(=O)OC3CCCC3)c3ccccc3)cc2)cc1C(N)=O [Example 4]
6. NC(=O)Nc1sc(-c2ccc(/C=C/CN[C@H](C(=O)OC3CCCC3)c3ccccc3)cc2)cc1C(N)=O [Example 41]
7. CC(C)C[C@H](NC/C=C/c1ccc(-c2cc(C(N)=O)c(NC(N)=O)s2)cc1Cl)C(=O)OC1CCCC1 [Example 32]

OUT:
> 5 µM
1 to 5 µM
< 1 µM
1 to 5 µM
1 to 5 µM
1 to 5 µM
1 to 5 µM

Batch request: IC50 per item, same order as input.
1. Cc1ccc(-c2cc(C(N)=O)c(NC(N)=O)s2)cc1CCN[C@@H](CC(C)C)C(=O)OC1CCCC1 [Example 23]
2. CC(C)C[C@H](NCc1cccc(-c2cc(C(N)=O)c(NC(N)=O)s2)c1)C(=O)OC(C)(C)C [Example 14]

OUT:
> 5 µM
1 to 5 µM

IN: Specify measured IC50 for CC(C)(C)OC[C@H](NCc1cccc(-c2cc(C(N)=O)c(NC(N)=O)s2)c1)C(=O)OC1CCCC1 [Example 11] .
OUT: 1 to 5 µM
